Data provenance: PubChem BioAssay (NCI)

- Tested on: UO-31 renal
- Measurement Protocol: NCI-60 one-dose screen, 48 h (100 = growth as untreated, 0 = no growth, -100 = all killed)
- Assay Setup: 10 µM unless noted
This is part of a sample that, as a whole, favours compounds with a hit. Of some 83,000 tested, about 20% had one in any assay.
Readout Kind: growth (%)
The figure you give is taken to be in %; do not add the unit.

Form field: reported growth of CC(C)C(=O)Nc1ncc(C(=O)NCCN(Cc2ccccc2)C(=O)c2ccc(S(=O)(=O)Nc3ccccc3)cc2)s1
80.2

What would you report for C=CCNc1nc(O)c(/C=C2\C=Nc3ncccc32)s1 ?
3.09

What would you report for Cc1ccc(S(=O)(=O)c2nc(-c3ccccc3)oc2S(C)=O)cc1 (stereo not given) ?
-80.5

What would you report for CC(=O)[C@H]1CC[C@]2(C)[C@@H]1CC[C@@H]1[C@@]3(C)C/C(=C/c4cccnc4)C(=O)C(C)(C)[C@@H]3CC[C@]12C ?
78.2

What would you report for O=C1C(c2c(O)[nH]c3ncccc23)=Nc2ccccc21 ?
46.2

What would you report for CCc1ccc(Cc2cnc(NC(=O)c3cc(C)oc3C)s2)cc1 ?
43.6

What would you report for O=C(O)COc1ccc(F)cc1 ?
91.6

What would you report for Cc1nc2ccccc2c(/C=C/c2ccc(Cl)cc2)c1C(=O)/C=C/c1ccccc1 ?
-38

What would you report for C=C1C(=O)O[C@H]2[C@H]1CC/C(COC(=O)NCc1ccc(Cn3c(=O)sn(CCCC)c3=O)cc1)=C\CC[C@@]1(C)O[C@@H]21 ?
3.12

What would you report for CCN1C(=O)N(CC)C2C1NC(=S)N2/N=C/C=C/c1ccccc1 (stereo not given) ?
40.7

What would you report for Cc1ccc(NC(=O)c2ccc(Nc3ncnc4c3cnn4-c3cccc(F)c3)cc2)cc1 ?
90.8

What would you report for CCOC(=O)CSc1nc2sc3c(c2c(=O)n1-c1ccccc1)CCCCC3 ?
84.1

What would you report for Oc1c(Cl)cc(Cl)c2ccc(CN3CCNCC3)nc12 ?
3.7

What would you report for OC1CSSC1Cn1cnc2c(Nc3ccc(F)c(Cl)c3)ncnc21 (stereo not given) ?
44

What would you report for Cc1cc(N2CCOCC2)nc(N(CCCNc2ccnc3cc(Cl)ccc23)Cc2ccc3c(c2)OCO3)n1 ?
-32.3

What would you report for CC1=C(C(=O)c2ccccc2)C(c2ccc3c(c2)OCO3)NC(=S)N1 (stereo not given) ?
55.7

What would you report for COc1ccc(N/N=C/c2ccc3c(c2)Sc2ccccc2N3C)cc1 ?
42.1

What would you report for Cn1ccnc1C(=O)/C=C/c1ccc(C(=O)Nc2ccccc2F)cc1 ?
34.9

What would you report for COc1cc(C(=O)c2c(-c3ccccc3)oc3ccccc23)cc(OC)c1O ?
51.9

What would you report for C#CCOc1cc(/C=N/Nc2nc(-c3ccc(OC)cc3)cs2)ccc1O ?
72.6

What would you report for C[C@H]1c2ccccc2CN1CCCOc1cc2c(cc1OCC1CC1)C1(CCCC1)C(N)=N2 ?
29.3

What would you report for O=C(CNc1ncco1)Nc1ccc(S(=O)(=O)c2ccc(NC(=O)CNc3ncco3)cc2)cc1 ?
41.1

What would you report for FC(F)(F)c1cccc(-c2nnn(Cc3cc(-c4cccc(Cl)c4)no3)n2)c1 ?
85.7

What would you report for COc1cc2c(c(OC)c1OC)C(=O)CC(c1cccc(C(=O)Nc3ccc(Br)cc3)c1)O2 (stereo not given) ?
40.3

What would you report for C#Cc1c(I)n(C2OC(CO[Si](C)(C)C(C)(C)C)C3OC(C)(C)OC32)c(=O)[nH]c1=O (stereo not given) ?
-77.3
